System: A549
Assay: cells
Settings: Homo sapiens, A549, 72 h
Description: Antiproliferative activity against human A549 cells assessed as inhibition of cell proliferation incubated for 72 hrs by MTT assay
pIC50: −log10 of the molar value.
Binary call on pIC50: y from 5 upward, n beneath that.

>  <Smiles notation>
FC(F)(F)c1cccc(-[n+]2cc3c4c(ccn3c2)c2ccccc2n4CCCc2ccccc2)c1

>  <Assigned label>
n

$$$$
>  <Smiles notation>
FC(F)(F)c1ccc(-[n+]2cc3c4c(ccn3c2)c2ccccc2n4Cc2cccc(Cl)c2)cc1

>  <Assigned label>
y

$$$$
>  <Smiles notation>
Fc1ccc(Cn2c3ccccc3c3ccn4c[n+](-c5ccccc5)cc4c32)cc1

>  <Assigned label>
n

$$$$

* * *

Tested on: A549
Experiment: cells
Settings: Homo sapiens, A549, 72 h
Below: a set of entries, each annotated with reported IC50.

>  <Smiles notation>
c1ccc(CCCn2c3ccccc3c3ccn4c[n+](-c5ccc6ccccc6c5)cc4c32)cc1

>  <Endpoint unit>
µM

>  <IC50>
12.7

$$$$
>  <Smiles notation>
Fc1c(F)c(F)c(Cn2c3ccccc3c3ccn4c[n+](-c5ccc(C(F)(F)F)cc5)cc4c32)c(F)c1F.[Cl-]

>  <Endpoint unit>
µM

>  <IC50>
8.5

$$$$
>  <Smiles notation>
COc1ccc(-[n+]2cc3c4c(ccn3c2)c2ccccc2n4C)cc1

>  <Endpoint unit>
µM

>  <IC50>
8.4

$$$$
>  <Smiles notation>
FC(F)(F)c1ccc(-[n+]2cc3c4c(ccn3c2)c2ccccc2n4Cc2ccccc2)cc1

>  <Endpoint unit>
µM

>  <IC50>
12.2

$$$$
>  <Smiles notation>
Cn1c2ccccc2c2ccn3c[n+](-c4ccc(Cl)cc4Cl)cc3c21

>  <Endpoint unit>
µM

>  <IC50>
8.5

$$$$
>  <Smiles notation>
Fc1ccc(Cn2c3ccccc3c3ccn4c[n+](-c5ccc(C(F)(F)F)cc5)cc4c32)cc1

>  <Endpoint unit>
µM

>  <IC50>
9.6

$$$$
